target: DAEFRH-specific monoclonal antibody (mAb) produced according to example 1; test: competition ELISA: soluble peptide vs plate-bound DAEFRH-C-BSA for biotinylated mAb, FIG. 5
Endpoint label: IC50

Answered cases to consult:
1. DWEFRDAC [Peptide 1241 DWEFRDA]
< 0.5 µg/mL
2. EYEFRGC [Peptide 1239 EYEFRG]
> 0.5 µg/mL
3. DKELRC [Peptide 1238 DKELR]
< 0.5 µg/mL
4. DKELKIC [Peptide 1236 DKELKI]
> 5 µg/mL
5. DRELKIC [Peptide 1237 DRELKI]
> 5 µg/mL

In the following, a different binder is considered.
INPUT: Entry DRELRIC [Peptide 1235 DRELRI] has what IC50?
OUTPUT: < 0.5 µg/mL
